Test: Acute toxicity test (single intraperitoneal administration, LD50)
Details: mouse, in vivo, ip; single i.p. administration, male ddY mice, death judged on 14th day

{"columns": ["molecule", "unitsText", "valueQualifier", "LD50 at 336 h"],
 "data": [
  ["CCCCCCCC/C=C\\CCCCCCCC(=O)O[C@H]1C[C@H](n2cc(F)c(=O)[nH]c2=O)O[C@@H]1COP(=O)([O-])OCC[N+](C)(C)C [Test compound 3]", "mg/kg", "=", 200],
  ["CCCCCCCCCCCCCCCC(=O)OC[C@H]1O[C@@H](n2cc(F)c(=O)[nH]c2=O)C[C@@H]1OP(=O)([O-])OCC[N+](C)(C)C [Test compound 5]", "mg/kg", ">", 200],
  ["CCCCCCCCC=CCCCCCCCC(=O)OC[C@H]1O[C@@H](n2cc(F)c(=O)[nH]c2=O)C[C@@H]1OP(=O)([O-])OCC[N+](C)(C)C [compound 8]", "mg/kg", "=", 300],
  ["CCCCCCCCCCCC(=O)OC[C@H]1O[C@@H](n2cc(F)c(=O)[nH]c2=O)C[C@@H]1OP(=O)([O-])OCC[N+](C)(C)C [Test compound 7]", "mg/kg", ">", 300],
  ["CCCCCCCCCCCCCCCCCC(=O)O[C@H]1C[C@H](n2cc(F)c(=O)[nH]c2=O)O[C@@H]1COP(=O)([O-])OCC[N+](C)(C)C [Test compound 2]", "mg/kg", "=", 188],
  ["CCCCCC(=O)OC[C@H]1O[C@@H](n2cc(F)c(=O)[nH]c2=O)C[C@@H]1OP(=O)([O-])OCC[N+](C)(C)C [compound 9]", "mg/kg", "=", 500],
  ["CCCCCCCCCCCCCCCC(=O)O[C@H]1C[C@H](n2cc(F)c(=O)[nH]c2=O)O[C@@H]1COP(=O)([O-])OCC[N+](C)(C)C [compound 1]", "mg/kg", "=", 208],
  ["CCCCCCCCCCCCCCCCCC(=O)OC[C@H]1O[C@@H](n2cc(F)c(=O)[nH]c2=O)C[C@@H]1OP(=O)([O-])OCC[N+](C)(C)C [Test compound 6]", "mg/kg", "=", 200]
]}
